- PROTOCOL DETAILS: NCI Yeast Anticancer Drug Screen. Data for the mec2-1 strain (AID 157)
- REPORTED CONDITIONS: S. cerevisiae mec2-1 strain, at 50.0 µM, hits give high values
Compounds without any hit were thinned out: in the full panel of roughly 79,000, 15% have a hit.
Form field: growth inhibition (one value per entry).
API: value field is a number in %; no unit string.

Guide cases for growth inhibition, answers given:
N#CCCn1[nH]c(=O)c(Cl)c(Cl)c1=O: 4.6
O=C(CSc1nnc(Cc2ccccc2)o1)Nc1ccc(Cl)cc1Cl: -41
NC(=O)c1nnc2cc(F)c(F)cc2c1N: -20.8
CC1=C2C(C)CC3OC(=O)C(C)C3C(O)C2CC1=O (stereo not drawn): -7.5
Cc1ccc([N+](=O)[O-])c2c(NCCNC(=O)Cn3ccnc3[N+](=O)[O-])ccnc12: 4.3
COc1ccc(C2CC(=O)Oc3cc4c(cc32)OCO4)cc1 (stereo not drawn): -8.05
N/C(=N\OC(=O)NC(Cl)=C(Cl)Cl)c1ccc(Cl)cc1: -34.4

[in] Provide only the value of recorded growth inhibition for `O=[N+]([O-])c1ccc(O)c(O)c1`
[out] -1.7

Provenance of the data: PubChem BioAssay (NCI)
